Data credit: PubChem BioAssay (NCI)

- System: SF-539 CNS
- ASSAY OVERVIEW: NCI tumour cell line growth inhibition, 48 h
In this section we review reported TGI values for a set of compounds.

// known answers, use as guide
**Query** Given the compound "CN(C)c1cccc(/C=C(\C#N)c2ccccc2)c1" , write its reported TGI.
**Result** 4.32 µM

**Query** Given the compound "Clc1ccc(-c2nc(C(Cl)Cl)nc3cc(-c4ccccc4)nn23)cc1" , write its reported TGI.
**Result** > 50 µM

**Query** Given the compound "Cc1ccc(S(=O)(=O)N[C@@H](Cc2ccccc2)C(=O)CCl)cc1" , write its reported TGI.
**Result** 5.68 µM

Others:
**Query** Given the compound "CC(=O)c1sc2n(C)c(=O)c3ccccc3[n+]2c1C" , write its reported TGI.
**Result** > 100 µM

**Query** Given the compound "Cc1nnc2n1N=C(c1ccc(-c3ccc([N+](=O)[O-])cc3)o1)CS2" , write its reported TGI.
**Result** > 100 µM

**Query** Given the compound CC(=O)N1N=C(c2ccc(Nc3nc(Nc4ccc(F)cc4)nc(Nc4ccc(Cl)cc4)n3)cc2)CC1c1ccc(N(C)C)cc1 (stereo unspecified) , write its reported TGI.
**Result** > 63.9 µM

====

- Tested on: SNB-75 CNS
- ASSAY OVERVIEW: NCI tumour cell line growth inhibition, 48 h
MEASUREMENT KIND: TGI

**Query** Supply TGI measured with SNB-75 CNS for "OCC#CCCCCOCC#Cc1ccccc1C#CCOCCCCC#CCO" .
**Result** 66.2 µM

**Query** Supply TGI measured with SNB-75 CNS for "Cc1nnc2n1N=C(c1ccc(-c3ccc([N+](=O)[O-])cc3)o1)CS2" .
**Result** > 100 µM

**Query** Supply TGI measured with SNB-75 CNS for "O=C1CC2(CCNCC2)C(=O)N1N1CCCCC1" .
**Result** > 100 µM

Others:
**Query** Supply TGI measured with SNB-75 CNS for "CCN(CC)c1ccc2cc(-c3csc(C)n3)c(=O)oc2c1" .
**Result** 9.42 µM

**Query** Supply TGI measured with SNB-75 CNS for "Cc1ccc(S(=O)(=O)NC(=O)NCC(N)=O)cc1" .
**Result** > 100 µM

**Query** Supply TGI measured with SNB-75 CNS for "CC(=O)Oc1cc(/C=C/c2ccc(O)cc2)cc(OC(C)=O)c1" .
**Result** > 100 µM

====

- Tested on: T-47D breast
- ASSAY OVERVIEW: NCI tumour cell line growth inhibition, 48 h
MEASUREMENT KIND: GI50

// known answers, use as guide
**Query** Given the compound "COC(=O)c1ccc(NC(N)=NCC(C)(C)COc2ccc(C(F)(F)F)cc2)nc1" , write its reported GI50.
**Result** 1.37 µM

**Query** Given the compound "O=C(Nc1nc(-c2ccccc2)cs1)c1cc(O)c(O)c(O)c1" , write its reported GI50.
**Result** 2.34 µM

**Query** Given the compound "NC(=S)N/N=C/c1ccc(OC(=O)COc2ccccc2)cn1" , write its reported GI50.
**Result** 7.45 µM

Others:
**Query** Given the compound CC(=O)[O][Hg][CH2]C1(C)COC(C)([CH2][Hg][O]C(C)=O)CO1 (stereo unspecified) , write its reported GI50.
**Result** 2.94 µM

**Query** Given the compound O=c1oc2c(cc1-c1ccccc1)C(O)Oc1ccccc1-2 (stereo unspecified) , write its reported GI50.
**Result** 4.41 µM

**Query** Given the compound "CC(=O)Oc1ccccc1C(=O)NCCC[Se]C#N" , write its reported GI50.
**Result** 3.19 µM
